- System: U-2932
- Protocol Summary: growth inhibition by drug plus 177Lu-lilotomab satetraxetan (1 - RLU/untreated control) (fraction); higher = stronger inhibition
- Run Conditions: 1000 nM; time (day): 6; 177Lu-lilotomab satetraxetan 1 ug/ml
Counter-ions that a name gives are not always drawn.
Assign Yes to entries whose growth inhibition by drug plus 177Lu-lilotomab satetraxetan meets or exceeds 0.3; assign No to the rest.

Say whether `COc1ccc(CCN2CCN(CCCc3ccccc3)CC2)cc1OC` shows growth inhibition by drug plus 177Lu-lilotomab satetraxetan of 0.3 or more. No

Say whether `Nc1nccc(-c2ccc3noc(-c4ccc(Cl)cc4)c3c2)n1` shows growth inhibition by drug plus 177Lu-lilotomab satetraxetan of 0.3 or more. No

Say whether `CCN(CC)C(=S)SSC(=S)N(CC)CC` shows growth inhibition by drug plus 177Lu-lilotomab satetraxetan of 0.3 or more. Yes

Say whether `CS(=O)(=O)N1CCc2c(-c3cnc(N)nc3)nc(N3CCOCC3)nc21` shows growth inhibition by drug plus 177Lu-lilotomab satetraxetan of 0.3 or more. Yes

Say whether `Cc1ccc(Nc2nccc(N(C)c3ccc4c(C)n(C)nc4c3)n2)cc1S(N)(=O)=O` shows growth inhibition by drug plus 177Lu-lilotomab satetraxetan of 0.3 or more. No

Say whether `CS(=O)(=O)c1cccc(CNc2nc(Nc3ccc4c(c3)CCC(=O)N4)ncc2C(F)(F)F)c1` shows growth inhibition by drug plus 177Lu-lilotomab satetraxetan of 0.3 or more. Yes

Say whether C#Cc1cccc(Nc2ncnc3cc(OCCOC)c(OCCOC)cc23)c1 [Erlotinib HCl] shows growth inhibition by drug plus 177Lu-lilotomab satetraxetan of 0.3 or more. Yes

Say whether `N#Cc1ccc(C(c2ccc(C#N)cc2)n2cncn2)cc1` shows growth inhibition by drug plus 177Lu-lilotomab satetraxetan of 0.3 or more. No

Say whether COc1c(C)c2c(c(O)c1C/C=C(\C)CCC(=O)OCCN1CCOCC1)C(=O)OC2 [Mycophenolate mofetil (CellCept)] shows growth inhibition by drug plus 177Lu-lilotomab satetraxetan of 0.3 or more. Yes

Sourced from the supplement of paper PMC6897291
